Target: BACE-2 (Homo sapiens)
Construct: Recombinant BACE-2 (extracellular domain, expressed in baculovirus and purified using standard methods)
Test: assay for inhibition of BACE-2
Counter-ions that a name gives are not always drawn.
assay metric: IC50

Could you share which IC50 value was measured for CC1(c2cccc(NC(=O)c3cccnc3)c2)COCC(N)=N1 (centres unmarked) [Example 28, hydrochloride] ?
> 10000 nM

Could you share which IC50 value was measured for NC1=NC(c2cc(NC(=O)c3ccc(Br)cn3)ccc2F)(C(F)(F)F)CCOC1 (centres unmarked) ?
37 nM

Could you share which IC50 value was measured for CC1(c2cccc(NC(=O)c3cnc(O)cn3)c2)COCC(N)=N1 (centres unmarked) ?
3180 nM

Could you share which IC50 value was measured for NC1=NC(c2cc(NC(=O)c3ccc(Br)cn3)ccc2F)(C(F)F)CNC1 (centres unmarked) ?
24 nM

Could you share which IC50 value was measured for CC1(c2cc(NC(=O)c3ccc(Br)cn3)ccc2F)CN(c2cccnc2)C(=O)C(N)=N1 (centres unmarked) [Example 198, hydrochloride] ?
9 nM

Could you share which IC50 value was measured for Cc1cc(OC(F)F)cnc1C(=O)Nc1ccc(F)c([C@]2(C(F)F)CNCC(N)=N2)c1 (single isomer, unassigned) ?
116 nM

Could you share which IC50 value was measured for Cc1nc(C(=O)Nc2ccc(F)c([C@]3(C)CO[C@@](C)(C(F)(F)F)C(N)=N3)c2)c(C)o1 [Example 237, hydrochloride] ?
7 nM

Could you share which IC50 value was measured for N#Cc1ccc(C(=O)Nc2cccc(C3(C(F)F)COCC(N)=N3)c2)nc1 (centres unmarked) ?
910 nM

---

Target: BACE-2 (Homo sapiens, UniProt Q9Y5Z0)
Construct: Recombinant BACE-2 (extracellular domain, expressed in baculovirus and purified using standard methods)
Sequence (Q9Y5Z0 63-473 limits assumed): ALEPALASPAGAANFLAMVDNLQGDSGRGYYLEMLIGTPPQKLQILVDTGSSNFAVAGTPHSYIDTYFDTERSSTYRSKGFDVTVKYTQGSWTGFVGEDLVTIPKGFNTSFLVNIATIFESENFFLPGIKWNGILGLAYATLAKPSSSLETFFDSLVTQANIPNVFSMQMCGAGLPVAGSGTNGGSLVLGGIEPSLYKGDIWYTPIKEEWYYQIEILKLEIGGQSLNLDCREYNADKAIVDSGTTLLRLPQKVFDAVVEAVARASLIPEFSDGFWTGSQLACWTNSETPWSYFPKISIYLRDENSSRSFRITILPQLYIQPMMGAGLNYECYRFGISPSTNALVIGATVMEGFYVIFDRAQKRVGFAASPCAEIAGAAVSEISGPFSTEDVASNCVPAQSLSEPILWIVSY
Experiment: assay for inhibition of BACE-2
Counter-ions that a name gives are not always drawn.
assay metric: pIC50
// pIC50: -log10(molar conc.)

compound: [2H]C([2H])([2H])OCc1cc(OC([2H])([2H])[2H])cnc1C(=O)Nc1ccc(F)c([C@]2(C(F)F)COCC(N)=N2)c1 [Example 224]
experimental system: BACE-2 (Homo sapiens, UniProt Q9Y5Z0)
measurement: 6.99
//
compound: [2H]C([2H])([2H])Oc1cnc(C(=O)Nc2ccc(F)c([C@]3(C(F)F)COCC(N)=N3)c2)c(N)n1 [Example 217]
experimental system: BACE-2 (Homo sapiens, UniProt Q9Y5Z0)
measurement: 6.82
//
compound: C[C@@H]1OC[C@](c2cc(NC(=O)c3ccc(Br)cn3)ccc2F)(C(F)F)N=C1N (relative stereo) [Example 78, hydrochloride]
experimental system: BACE-2 (Homo sapiens, UniProt Q9Y5Z0)
measurement: 7.66
//
compound: N#Cc1ccc(C(=O)Nc2cc(C3(C(F)F)COCC(N)=N3)c(F)cc2F)nc1 (stereo not shown) [Example 82]
experimental system: BACE-2 (Homo sapiens, UniProt Q9Y5Z0)
measurement: 5.91
//
compound: NC1=NC(c2cc(NC(=O)c3ncc(Br)cc3O)c(F)cc2F)(C(F)F)COC1 (stereo not shown) [Example 84]
experimental system: BACE-2 (Homo sapiens, UniProt Q9Y5Z0)
measurement: 5.46

Could you share which pIC50 value was measured for CCC1C(N)=NC(C)(c2cccc(NC(=O)c3ccc(Br)cn3)c2)C(=O)N1C (mixture of isomers) [Example 200] ?
5.90

Could you share which pIC50 value was measured for Cc1cnc(C(=O)Nc2ccc(F)c([C@]3(C(F)F)COCC(N)=N3)c2)cn1 [Example 48] ?
6.29

Could you share which pIC50 value was measured for CCn1ccnc1C(=O)Nc1ccc(F)c([C@]2(C(F)F)COCC(N)=N2)c1 [Example 166, hydrochloride] ?
6.42
